FYI, the data here is from paper PMC548358.

Biological target: T1, Trx-mMUTYH(D207N) (Mus musculus, UniProt Q99P21 1-515, D207N)
T1 sequence: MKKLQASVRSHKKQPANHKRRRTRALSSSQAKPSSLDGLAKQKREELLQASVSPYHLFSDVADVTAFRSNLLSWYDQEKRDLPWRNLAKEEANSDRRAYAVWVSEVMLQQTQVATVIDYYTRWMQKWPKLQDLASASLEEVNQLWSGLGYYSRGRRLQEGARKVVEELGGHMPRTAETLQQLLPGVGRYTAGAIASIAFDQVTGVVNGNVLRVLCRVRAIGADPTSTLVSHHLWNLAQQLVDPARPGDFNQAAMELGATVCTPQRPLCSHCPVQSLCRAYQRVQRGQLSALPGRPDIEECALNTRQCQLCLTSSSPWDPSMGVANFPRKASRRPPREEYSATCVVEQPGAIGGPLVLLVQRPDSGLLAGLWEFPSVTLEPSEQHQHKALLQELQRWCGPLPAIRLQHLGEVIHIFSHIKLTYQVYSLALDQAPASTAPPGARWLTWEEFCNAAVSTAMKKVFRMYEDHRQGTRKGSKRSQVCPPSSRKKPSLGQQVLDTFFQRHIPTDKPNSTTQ
Test: EMSA

Binder	binding result
*A:G (dsDNA) DNA 1: AGCGGCCATCGATACCGTCAACCTCGAGGAATTCC DNA 2: GGAATTCCTCGAGGTGGACGGTATCGATGGCCGCT	no binding
*AO:T (dsDNA, 2-hydroxyadenine at strand 1 position 20, opposite T16 of strand 2) DNA 1: AGCGGCCATCGATACCGTCAACCTCGAGGAATTCC DNA 2: GGAATTCCTCGAGGTTGACGGTATCGATGGCCGCT	no binding
*AO:G (dsDNA, 2-hydroxyadenine at strand 1 position 20, opposite G16 of strand 2) DNA 1: AGCGGCCATCGATACCGTCAACCTCGAGGAATTCC DNA 2: GGAATTCCTCGAGGTGGACGGTATCGATGGCCGCT	no binding
*A:GO (dsDNA, 8-oxoguanine at strand 2 position 16, opposite A20 of strand 1) DNA 1: AGCGGCCATCGATACCGTCAACCTCGAGGAATTCC DNA 2: GGAATTCCTCGAGGTGGACGGTATCGATGGCCGCT	binds
